- Tested on: BDF1 mice, P388 leukemia ip, median survival T/C
- method: NCI In Vivo Anticancer Drug Screen. Data for tumor model P388 Leukemia (intraperitoneal) in B6D2F1 (BDF1) mice
- condition_notes: endpoint: median survival time; dose: 200.0 mg/kg/injection; schedule: Q01DX009 (ip); vehicle: saline with Tween-80; higher = longer survival
Inconclusive results and toxic doses are left out.
Some molecules, each annotated with its measured T/C.

molecule: COc1cc2c(cc1OC)C(c1ccc(N=Cc3ccc(Cl)c(Cl)c3)cc1)N(C(=S)Nc1cc(Cl)ccc1Cl)CC2 (stereo not given)
assay_target: BDF1 mice, P388 leukemia ip, median survival T/C
T/C: 89 % of control

molecule: CCc1nnc2n1N=C(c1ccc(-c3ccccc3)cc1)CS2
assay_target: BDF1 mice, P388 leukemia ip, median survival T/C
T/C: 90 % of control

molecule: CCOC(=O)C(Cc1ccccc1Cl)(Cc1ccccc1Cl)c1ccccc1
assay_target: BDF1 mice, P388 leukemia ip, median survival T/C
T/C: 100 % of control

molecule: NC(=O)c1ncn[nH]1
assay_target: BDF1 mice, P388 leukemia ip, median survival T/C
T/C: 104 % of control

molecule: O=C1OC(=O)C2C1C(c1ccc([N+](=O)[O-])cc1)N1C3C(=O)OC(=O)C3C(c3ccc([N+](=O)[O-])cc3)N21 (stereo not given)
assay_target: BDF1 mice, P388 leukemia ip, median survival T/C
T/C: 92 % of control

molecule: CCCCCCCCCC(O)CCCCC (stereo not given)
assay_target: BDF1 mice, P388 leukemia ip, median survival T/C
T/C: 108 % of control

molecule: CCOC(=O)c1ccc(NS(=O)(=O)c2ccc(C)cc2)cc1
assay_target: BDF1 mice, P388 leukemia ip, median survival T/C
T/C: 106 % of control

molecule: Nc1nc(N)c2cc(S(=O)(=O)c3cccc(C(F)(F)F)c3)ccc2n1
assay_target: BDF1 mice, P388 leukemia ip, median survival T/C
T/C: 120 % of control

molecule: COc1ccc(C(=O)CC(C(=O)O)c2ccc3c(c2)OCO3)cc1OC (stereo not given)
assay_target: BDF1 mice, P388 leukemia ip, median survival T/C
T/C: 100 % of control

molecule: CC(=O)N(C)C=C1C(=O)N(C)C(=O)N(C)C1=O
assay_target: BDF1 mice, P388 leukemia ip, median survival T/C
T/C: 92 % of control

molecule: O=C(Cn1ccc(=O)[nH]c1=O)c1cccs1
assay_target: BDF1 mice, P388 leukemia ip, median survival T/C
T/C: 86 % of control

molecule: COC(=O)/C(=C/c1ccccc1)c1ccccc1
assay_target: BDF1 mice, P388 leukemia ip, median survival T/C
T/C: 96 % of control

molecule: O=C(Cn1ccc(O)cc1=O)c1ccc(Cl)s1
assay_target: BDF1 mice, P388 leukemia ip, median survival T/C
T/C: 93 % of control

molecule: C=C(C)C(=O)NCC(=O)Oc1ccc([N+](=O)[O-])cc1
assay_target: BDF1 mice, P388 leukemia ip, median survival T/C
T/C: 93 % of control

molecule: CC(=O)Nc1ccn(CC(=O)c2ccco2)c(=O)n1
assay_target: BDF1 mice, P388 leukemia ip, median survival T/C
T/C: 95 % of control

molecule: OCC1CC1c1ccccc1 (stereo not given)
assay_target: BDF1 mice, P388 leukemia ip, median survival T/C
T/C: 109 % of control

molecule: CCOC(=O)CCC1(C(=O)OCC)Oc2ccc(Cl)cc2C1=O (stereo not given)
assay_target: BDF1 mice, P388 leukemia ip, median survival T/C
T/C: 108 % of control

molecule: CCOC(=O)C1SC(=S)N(C)C1=O (stereo not given)
assay_target: BDF1 mice, P388 leukemia ip, median survival T/C
T/C: 100 % of control

molecule: CCN(CC)c1oc2ccc3ccccc3c2c(=O)c1Cl
assay_target: BDF1 mice, P388 leukemia ip, median survival T/C
T/C: 92 % of control

molecule: COc1cccc(C2NC(=O)c3c(n[nH]c3N)S2)c1O (stereo not given)
assay_target: BDF1 mice, P388 leukemia ip, median survival T/C
T/C: 103 % of control

molecule: COC(=O)NC1CCCCC1I (stereo not given)
assay_target: BDF1 mice, P388 leukemia ip, median survival T/C
T/C: 100 % of control

molecule: CCc1nn2c(=O)nc(Oc3ccccc3)nc2s1
assay_target: BDF1 mice, P388 leukemia ip, median survival T/C
T/C: 98 % of control

molecule: CNC(=O)Oc1ccc2ccccc2c1
assay_target: BDF1 mice, P388 leukemia ip, median survival T/C
T/C: 113 % of control

molecule: Cc1nc2nc(C(F)(F)F)[nH]c2nc1C
assay_target: BDF1 mice, P388 leukemia ip, median survival T/C
T/C: 94 % of control

molecule: CN(C)c1ccc(C=C2C(=O)CC(C)(C)CC2=O)cc1
assay_target: BDF1 mice, P388 leukemia ip, median survival T/C
T/C: 97 % of control
